Values were extracted from patent EP0595557A1.

Target: Human Polymorphonuclear Leukocyte Elastase (Homo sapiens, UniProt P08246)
Construct: Crude extract of human polymorphonuclear leukocytes (PMN) containing elastase activity; from tissue; host or cells: human polymorphonuclear leukocytes (crude extract)
Test: Enzyme assay for inhibition of human polymorphonuclear leukocyte elastase via hydrolysis of Boc-AAPAN or Boc-AAPVN
Type: biochemical
Details: pH 7.5, second order rate constant for inactivation of the enzyme, expressed to the nearest thousand, read-out: Kobs/[I]
PARAMETER: kinact/KI (M⁻¹ s⁻¹)

Answered examples (2):
>>> print(df.to_string())
                                        smi  parameter  unit_of_measure  reported_result
0  CCC[C@@H](NC(=O)N1C(=O)C(CC)(CC)[C@@H]1Oc1ccc(CC(=O)NCCN(C)C)cc1)c1ccc(C)cc1  kinact/KI          M⁻¹ s⁻¹         1.21e+06
1  CCC[C@@H](NC(=O)N1C(=O)C(CC)(CC)[C@@H]1Oc1ccc(CC(=O)N(CC)CC)cc1)c1ccc(C)cc1  kinact/KI          M⁻¹ s⁻¹         1.08e+06

(P) CCC[C@@H](NC(=O)N1C(=O)C(CC)(CC)[C@@H]1Oc1ccc(CC(=O)N(C)CCN(CCOC)CCOC)cc1)c1ccc(C)cc1
(Q) CCC[C@@H](NC(=O)N1C(=O)C(CC)(CC)[C@@H]1Oc1ccc(C(=O)N(C)CCN(C)S(C)(=O)=O)cc1)c1ccc(C)cc1
Exercise: # returns the entry with the larger kinact/KI; inputs P and Q Answer by stating the label of the chosen item.
Solution: Q

----------
Biological target: Human Polymorphonuclear Leukocyte Elastase (Homo sapiens)
Construct: Crude extract of human polymorphonuclear leukocytes (PMN) containing elastase activity; from tissue; host or cells: human polymorphonuclear leukocytes (crude extract)
Assay: Enzyme assay for inhibition of human polymorphonuclear leukocyte elastase via hydrolysis of Boc-AAPAN or Boc-AAPVN
Format: biochemical
Conditions: pH 7.5, second order rate constant for inactivation of the enzyme, expressed to the nearest thousand, read-out: Kobs/[I]
PARAMETER: kinact/KI (M⁻¹ s⁻¹)

(I) CCC[C@@H](NC(=O)N1C(=O)C(CC)(CC)[C@@H]1Oc1ccc(CC(=O)N2CCOCC2)cc1)c1ccc(C(=O)OCCN(C)C)cc1
(II) CCC[C@@H](NC(=O)N1C(=O)C(CC)(CC)[C@@H]1Oc1ccc(CC(=O)N(C)Cc2ccccc2)cc1)c1ccc(C)cc1
(III) CCC[C@@H](NC(=O)N1C(=O)C(CC)(CC)[C@@H]1Oc1ccc(CC(=O)N(C)CCN(C)C)cc1)c1cccc(C(=O)N2CCOCC2)c1
Exercise: Returns the items ordered by kinact/KI, from maximum to minimum. Write out the labels following the order that was asked for.
Solution: II, I, III
(II: 1.9e+06 M⁻¹ s⁻¹, I: 421000 M⁻¹ s⁻¹, III: 142000 M⁻¹ s⁻¹)

----------
Biological target: Human Polymorphonuclear Leukocyte Elastase (Homo sapiens)
Construct: Crude extract of human polymorphonuclear leukocytes (PMN) containing elastase activity; from tissue; host or cells: human polymorphonuclear leukocytes (crude extract)
Sequence (P08246 30-267): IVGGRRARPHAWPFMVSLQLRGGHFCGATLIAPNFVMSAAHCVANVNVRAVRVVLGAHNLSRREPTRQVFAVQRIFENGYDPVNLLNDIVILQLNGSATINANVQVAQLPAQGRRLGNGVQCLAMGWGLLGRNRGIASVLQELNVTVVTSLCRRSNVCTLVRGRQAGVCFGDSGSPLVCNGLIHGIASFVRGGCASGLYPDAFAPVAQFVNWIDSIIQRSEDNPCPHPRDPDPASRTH
Assay: Enzyme assay for inhibition of human polymorphonuclear leukocyte elastase via hydrolysis of Boc-AAPAN or Boc-AAPVN
Format: biochemical
Settings: pH 7.5, second order rate constant for inactivation of the enzyme, expressed to the nearest thousand, read-out: Kobs/[I]
Method: Enzyme Assays for the Inhibition of Human Polymorphonuclear Leukocyte Elastase Via Hydrolysis of N-t-Boc-alanyl-alanyl-prolylalanine-p-nitroanilide (Boc-AAPAN) or N-t-Boc-alanyl-prolylvaline-p-nitro-anilide (Boc-AAPVN) Reagent: […] To 1.0 ml of 0.2 mM Boc-AAPAN in a cuvette, 0.01-0.1 ml of DMSO with or without inhibitor was added. […] 0.05 Milliliters of PMN extract was then added and the ΔOD/min at 410 mµ was measured and recorded. […]
PARAMETER: kinact/KI (M⁻¹ s⁻¹)

Answered examples (2):
In [3]: df
Out[3]:
                                   compound  reported_result
0  CCC[C@@H](NC(=O)N1C(=O)C(CC)(CC)[C@@H]1Oc1ccc(C(=O)N(C)CCN(C)C)cc1)c1ccc(C(=O)O)cc1 [Compound 287]           113000
1  CCC[C@@H](NC(=O)N1C(=O)C(CC)(CC)[C@@H]1Oc1ccc(CC(=O)N(CC)CC)cc1)c1ccc(C)c(C(=O)N2CCOCC2)c1 [Compound 270]           740000

(A) CCC[C@@H](NC(=O)N1C(=O)C(CC)(CC)[C@@H]1Oc1ccc(CC(=O)Nc2cccc(Cl)c2)cc1)c1ccc(C)cc1 [Compound 61]
(B) CCCC(NC(=O)N1C(=O)C(CC)(CC)C1Oc1ccc(C(=O)OCC(=O)N(CCO)CCO)cc1)c1ccc(C)cc1 (stereo not drawn) [Compound 3]
Exercise: # returns the entry with the larger kinact/KI; inputs A and B Answer by stating the label of the chosen item.
Solution: B
(B: 3.43e+06 M⁻¹ s⁻¹, A: 733000 M⁻¹ s⁻¹)

----------
Biological target: Human Polymorphonuclear Leukocyte Elastase (Homo sapiens)
Construct: Crude extract of human polymorphonuclear leukocytes (PMN) containing elastase activity; from tissue; host or cells: human polymorphonuclear leukocytes (crude extract)
Sequence (P08246 30-267): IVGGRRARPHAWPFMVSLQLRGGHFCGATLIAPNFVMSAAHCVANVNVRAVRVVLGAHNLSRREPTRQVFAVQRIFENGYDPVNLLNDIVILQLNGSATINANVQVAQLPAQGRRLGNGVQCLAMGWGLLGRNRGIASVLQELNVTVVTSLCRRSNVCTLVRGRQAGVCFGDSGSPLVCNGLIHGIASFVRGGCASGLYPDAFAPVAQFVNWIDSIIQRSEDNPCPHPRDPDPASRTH
Assay: Enzyme assay for inhibition of human polymorphonuclear leukocyte elastase via hydrolysis of Boc-AAPAN or Boc-AAPVN
Format: biochemical
Settings: pH 7.5, second order rate constant for inactivation of the enzyme, expressed to the nearest thousand, read-out: Kobs/[I]
PARAMETER: kinact/KI (M⁻¹ s⁻¹)

>>> df
                                   compound  parameter  reported_result
0  CCC[C@@H](NC(=O)N1C(=O)C(CC)(CC)[C@@H]1Oc1ccc(C(=O)N(C)CCN2CCCCCC2)cc1)c1ccc(C)cc1  kinact/KI          2.9e+06
1  CCC[C@@H](NC(=O)N1C(=O)C(CC)(CC)[C@@H]1Oc1ccc(C(=O)N(C)CCN(C(C)C)C(C)C)cc1)c1ccc(Cl)cc1  kinact/KI          1.5e+06
2  CCC[C@@H](NC(=O)N1C(=O)C(CC)(CC)[C@@H]1Oc1ccc(C(=O)OC(C)CN(C)C)cc1)c1ccc(C)cc1 (stereo partly drawn)  kinact/KI         2.47e+06

(P) CCC[C@@H](NC(=O)N1C(=O)C(CC)(CC)[C@@H]1Oc1ccc(C(=O)N(CCN(C)Cc2ccccc2)Cc2cccnc2)cc1)c1ccc(C)cc1
(Q) CCC[C@@H](NC(=O)N1C(=O)C(CC)(CC)[C@@H]1Oc1ccc(C(=O)N(C)CCN(C)Cc2ccccc2)cc1)c1ccc(OCC)cc1
Exercise: # returns the entry with the larger kinact/KI; inputs P and Q Answer by stating the label of the chosen item.
Solution: P

----------
Biological target: Human Polymorphonuclear Leukocyte Elastase (Homo sapiens)
Construct: Crude extract of human polymorphonuclear leukocytes (PMN) containing elastase activity; from tissue; host or cells: human polymorphonuclear leukocytes (crude extract)
Test: Enzyme assay for inhibition of human polymorphonuclear leukocyte elastase via hydrolysis of Boc-AAPAN or Boc-AAPVN
Assay type: biochemical
Conditions: pH 7.5, second order rate constant for inactivation of the enzyme, expressed to the nearest thousand, read-out: Kobs/[I]
Description: Enzyme Assays for the Inhibition of Human Polymorphonuclear Leukocyte Elastase Via Hydrolysis of N-t-Boc-alanyl-alanyl-prolylalanine-p-nitroanilide (Boc-AAPAN) or N-t-Boc-alanyl-prolylvaline-p-nitro-anilide (Boc-AAPVN) Reagent: […] To 1.0 ml of 0.2 mM Boc-AAPAN in a cuvette, 0.01-0.1 ml of DMSO with or without inhibitor was added. […] 0.05 Milliliters of PMN extract was then added and the ΔOD/min at 410 mµ was measured and recorded. […]
PARAMETER: kinact/KI (M⁻¹ s⁻¹)

Answered examples (8):
>>> df
                                   molecule  reported_result
0  CCC[C@@H](NC(=O)N1C(=O)C(CC)(CC)[C@@H]1Oc1ccc(C(=O)N2CCN(CCO)CC2)cc1)c1ccc2c(c1)OCO2 [Compound 265c]          4.8e+06
1  CCC[C@@H](NC(=O)N1C(=O)C(CC)(CC)[C@@H]1Oc1cc(C)c(C(=O)OCCN(C(C)C)C(C)C)c(C)c1)c1ccc(C)cc1           612000
2  CCC[C@@H](NC(=O)N1C(=O)C(CC)(CC)[C@@H]1Oc1ccc(C(=O)N(C)CCN2CCC(=O)CC2)cc1)c1ccc(C)cc1          2.3e+06
3  CCC[C@@H](NC(=O)N1C(=O)C(CC)(CC)[C@@H]1Oc1ccc(C(=O)N(C)CCN(C)C(=NC#N)Nc2ccccc2)cc1)c1ccc(C)cc1         1.76e+06
4  CCC[C@@H](NC(=O)N1C(=O)C(CC)(CC)[C@@H]1Oc1ccc(C(=O)N(C)CCN2CCCC(O)C2)cc1)c1ccc(C)cc1 (stereo partly drawn)         1.96e+06
5  CCC[C@@H](NC(=O)N1C(=O)C(CC)(CC)[C@@H]1Oc1ccc(C(=O)N(C)C2CCN(CC)CC2)cc1)c1ccc(C)cc1         1.42e+06
6  CCC[C@@H](NC(=O)N1C(=O)C(CC)(CC)[C@@H]1Oc1ccc(C(=O)N(CC)CC)cc1)c1ccc2c(c1)OCO2         3.21e+06
7  CCC[C@@H](NC(=O)N1C(=O)C(CC)(CC)[C@@H]1Oc1ccc(C(=O)N(C)CCCC(=O)NS(=O)(=O)c2ccccc2)cc1)c1ccc(C)cc1         1.55e+06

(I) CCC[C@@H](NC(=O)N1C(=O)C(CC)(CC)[C@@H]1Oc1ccc(CC(=O)N(CCC)CCC)cc1)c1ccc(C)cc1
(II) CCC[C@@H](NC(=O)N1C(=O)C(CC)(CC)[C@@H]1Oc1ccc(C(=O)O[C@@H](C)C(=O)OCc2ccccc2)cc1)c1ccc(C)cc1 (relative stereo)
Exercise: // compare: I vs II , metric kinact/KI, want the smaller Answer by stating the label of the chosen item.
Solution: I
(I: 1.14e+06 M⁻¹ s⁻¹, II: 2.89e+06 M⁻¹ s⁻¹)

(A) CCC[C@@H](NC(=O)N1C(=O)C(CC)(CC)[C@@H]1Oc1ccc(C(=O)N(CCN(CC)CC)CCN(CC)CC)cc1)c1ccc(C)cc1
(B) CCC[C@@H](NC(=O)N1C(=O)C(CC)(CC)[C@@H]1Oc1ccc(C(=O)N(C)CCN(C)C)cc1)c1ccc(OC)cc1
Exercise: # returns the entry with the larger kinact/KI; inputs A and B Answer by stating the label of the chosen item.
Solution: A
